Can you tell me protein stability index for the items I'm about to list?
B1: FUT8 (parent)
chain: YPSYKVREKIETVKYPTYPEAEK

# Variants of: B1
# METHOD SUMMARY: protein stability index of a GFP-peptide fusion (GPS, HEK-293T) (PSI 1-6); higher = more stable;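 note: lentivirally expressed fusions sorted by FACS into six bins by GFP to DsRed ratio, PSI derived from sequencing read proportions per bin multiplied by bin number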
# EXPERIMENTAL CONDITIONS: c terminus: native
// return a plain number; no unit text

Fill in: protein stability index of `S3C` is ___ 4.08

Try the variant `P16A` 3.89

What do you get for `A21V` ? 3.89

Can you handle `E11S` next? 4.07

Attribution: the supplement of paper PMC10567573
